# Test system: HepG2-CANX-COX4
# protocolDescription: phenotypically active (imaging signature differs from DMSO and reproducible) at any of 0.3-9 uM (binary (1 = active, 0 = inactive)); higher = active
# conditionsUsed: treatment time: 24 h
Structures can show the parent of a compound that is named as a salt.
Labels: label 1 = active, label 0 = inactive

{"columns": ["molecule", "qualitativeLabel"],
 "data": [
  ["CNC(=O)c1cc(Oc2ccc(NC(=O)Nc3ccc(Cl)c(C(F)(F)F)c3)cc2)ccn1", "label 1"],
  ["O=C1NN(c2ccc(F)c(Cl)c2)C(=O)/C1=C\\c1ccc([N+](=O)[O-])o1", "label 0"],
  ["Cc1ccc2ccc(C(Nc3ccccc3)c3ccccc3)c(O)c2n1 (stereo not given)", "label 0"],
  ["CN(C)c1nc(N(C)C)nc(N(C)C)n1", "label 0"],
  ["Cc1cc(C(C)Nc2ccccc2)c2nc(N3CCOCC3)cc(=O)n2c1 (stereo not given)", "label 0"],
  ["N=C(N)NN=Cc1c(Cl)cccc1Cl", "label 0"],
  ["Oc1cccc(Nc2ccnc3cc(-c4cccc(CN5CCOCC5)c4)sc23)c1 [LCB 03-0110 dihydrochloride]", "label 1"],
  ["Cc1cccc(-c2n[nH]cc2-c2ccc(F)c(-c3cnn(CCO)c3)c2)n1", "label 1"],
  ["Fc1ccccc1Nc1nc2nonc2nc1Nc1ccccc1F", "label 0"],
  ["CCOC(=O)[C@H](CCc1ccccc1)N[C@H]1CCc2ccccc2N(CC(=O)O)C1=O", "label 0"]
]}
